molecular target: F508del (Homo sapiens, UniProt P13569, DEL508-508); construct: expressed in transfected cells; assay: Protocol 2: FRET membrane potential optical assay (VIPR), identification of correction compounds; assay type: cell-based; settings: F508del CFTR modulator activity; compounds of Table 1; read-out: EC30
Sequence (P13569 with tags, fused parts or gaps DEL508-508): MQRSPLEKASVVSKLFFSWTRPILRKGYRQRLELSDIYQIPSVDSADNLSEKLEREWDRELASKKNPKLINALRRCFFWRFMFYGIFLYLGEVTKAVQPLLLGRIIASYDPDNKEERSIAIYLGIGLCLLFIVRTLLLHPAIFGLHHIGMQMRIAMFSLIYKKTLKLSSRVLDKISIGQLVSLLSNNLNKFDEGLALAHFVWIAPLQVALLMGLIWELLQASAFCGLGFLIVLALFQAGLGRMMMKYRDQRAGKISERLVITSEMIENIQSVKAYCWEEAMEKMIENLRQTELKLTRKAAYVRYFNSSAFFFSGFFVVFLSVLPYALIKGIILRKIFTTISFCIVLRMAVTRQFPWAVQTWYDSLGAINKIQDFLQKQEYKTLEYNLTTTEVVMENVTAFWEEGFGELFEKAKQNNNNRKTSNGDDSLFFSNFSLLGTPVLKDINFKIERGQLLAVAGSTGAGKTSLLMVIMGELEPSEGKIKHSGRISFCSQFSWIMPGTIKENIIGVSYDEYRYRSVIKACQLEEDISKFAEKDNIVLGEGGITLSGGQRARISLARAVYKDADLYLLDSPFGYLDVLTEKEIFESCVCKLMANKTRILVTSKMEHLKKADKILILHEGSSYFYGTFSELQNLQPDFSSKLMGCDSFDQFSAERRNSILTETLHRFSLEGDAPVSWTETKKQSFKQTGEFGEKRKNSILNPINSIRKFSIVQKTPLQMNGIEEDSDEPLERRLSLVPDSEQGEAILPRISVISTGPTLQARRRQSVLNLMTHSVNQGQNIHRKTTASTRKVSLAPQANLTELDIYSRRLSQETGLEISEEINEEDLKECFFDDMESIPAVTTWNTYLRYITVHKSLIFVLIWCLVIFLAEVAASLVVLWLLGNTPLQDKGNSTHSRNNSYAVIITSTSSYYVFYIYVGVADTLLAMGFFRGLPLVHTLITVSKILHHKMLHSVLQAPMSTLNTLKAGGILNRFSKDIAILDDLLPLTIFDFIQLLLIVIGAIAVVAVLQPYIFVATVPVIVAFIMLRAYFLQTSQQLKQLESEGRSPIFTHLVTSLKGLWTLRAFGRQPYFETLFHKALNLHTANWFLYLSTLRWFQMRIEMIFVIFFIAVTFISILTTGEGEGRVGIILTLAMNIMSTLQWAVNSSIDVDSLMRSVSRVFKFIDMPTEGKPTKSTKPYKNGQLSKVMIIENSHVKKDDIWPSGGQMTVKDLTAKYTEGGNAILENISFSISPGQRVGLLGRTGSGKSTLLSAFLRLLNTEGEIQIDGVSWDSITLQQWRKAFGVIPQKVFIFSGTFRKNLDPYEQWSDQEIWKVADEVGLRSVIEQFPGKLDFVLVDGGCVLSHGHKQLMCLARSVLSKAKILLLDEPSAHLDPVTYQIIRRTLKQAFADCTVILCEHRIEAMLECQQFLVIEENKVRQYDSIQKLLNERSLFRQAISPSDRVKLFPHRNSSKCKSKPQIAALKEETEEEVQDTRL

{"compound": "COC1CCN(c2cccc(S(=O)(=O)NC(=O)c3cccnc3N3CC(C)CC3(C)C)n2)CC1 (centres unmarked)", "EC30": "3 to 10 µM"}
{"compound": "CC1CN(c2ncc(-c3cccc(C(C)(C)C)c3)cc2C(=O)NS(=O)(=O)c2cccc(N)n2)C(C)(C)C1 (centres unmarked)", "EC30": "< 3 µM"}
{"compound": "CC(C)[C@@H](C)Oc1nc(N2C[C@@H](C)CC2(C)C)c(C(=O)NS(=O)(=O)c2cccc(N)n2)cc1F", "EC30": "< 3 µM"}
{"compound": "CC1CN(c2ncccc2C(=O)NS(=O)(=O)c2cccc(NC(C)C)n2)C(C)(C)C1 (centres unmarked)", "EC30": "3 to 10 µM"}
{"compound": "COc1ccc(-c2ccc(C(=O)NS(=O)(=O)c3cccnc3N)c(N3C[C@@H](C)CC3(C)C)n2)c(OC)n1", "EC30": "< 3 µM"}
{"compound": "COc1cccc(-c2ccc(C(=O)NS(=O)(=O)c3cccnc3N)c(N3C[C@@H](C)CC3(C)C)n2)n1", "EC30": "< 3 µM"}
{"compound": "CC(C)COc1ccn(-c2ccc(C(=O)NS(=O)(=O)c3cccnc3N)c(N3CC(C)CC34CCC4)n2)n1 (single isomer, unassigned)", "EC30": "< 3 µM"}
{"compound": "COc1ccc(-c2ccc(C(=O)NS(=O)(=O)c3cccnc3N)c(N3C[C@@H](C)CC3(C)C)n2)cn1", "EC30": "< 3 µM"}
{"compound": "C[C@@H]1CN(c2nc(-c3cccc(OC(F)(F)F)c3)ccc2C(=O)NS(=O)(=O)c2cccnc2N)C(C)(C)C1", "EC30": "< 3 µM"}
{"compound": "Cc1cc(F)cc(-c2ccc(C(=O)NS(=O)(=O)c3cccnc3N)c(N3C[C@@H](C)CC3(C)C)n2)c1", "EC30": "< 3 µM"}
{"compound": "CC1CN(c2ncccc2C(=O)NS(=O)(=O)c2cccc(OCc3cccc4c3OCO4)n2)C(C)(C)C1 (centres unmarked)", "EC30": "< 3 µM"}
{"compound": "C[C@@H]1CN(c2nc(-n3ccc(OCC(C)(C)C)n3)ccc2C(=O)NS(=O)(=O)c2ccc[nH]c2=O)C(C)(C)C1", "EC30": "< 3 µM"}
{"compound": "CC(C)Oc1cccc(-c2ccc(C(=O)NS(=O)(=O)N3CC[C@H](N)C3)c(N3C[C@@H](C)CC3(C)C)n2)c1", "EC30": "< 3 µM"}
{"compound": "CC1CN(c2ncccc2C(=O)NS(=O)(=O)c2cccc(NC3CCCCCCC3)n2)C(C)(C)C1 (centres unmarked)", "EC30": "< 3 µM"}
